Please provide measured photoluminescence quantum yield for the entries that follow.
Test: photoluminescence quantum yield (fraction); solvent given as SMILES
Conditions: in CC#N
One number for each entry.

Consider the following illustrative entries.
- N#Cc1nn(-c2c(Cl)cccc2Cl)nc1N1CCCC1: 0.113
- COC(=O)[C@@]12N=N[C@@](C(=O)OC)(C3[C@H]1C3(C)C)[C@H]1[C@@H]2C1(C)C (stereo not given in full): 0.041
- O=[N+]([O-])c1ccc(-c2nc3c(c4c2-c2ccccc2CC4)-c2ccccc2CC3)cc1: 0.037

Return reported photoluminescence quantum yield values for all items listed beneath this line.
1. NS(=O)(=O)c1ccc(N2N=C(c3ccc(O)cc3)CC2c2ccc(Cl)cc2)cc1 (stereo not given)
2. COc1cc(OC)cc(C2=[O+][B-](F)(F)OC(c3ccc4ccccc4c3)=C2)c1

0.65
0.01

###

Test: photoluminescence quantum yield (fraction); solvent given as SMILES
Conditions: in ClC(Cl)Cl
OBSERVATION_TYPE: photoluminescence quantum yield
Answers are plain numbers.

* Cc1cc(C)c(B(c2c(C)cc(C)cc2C)c2cc3ccc4ccccc4c3c3c2ccc2ccccc23)c(C)c1 | 0.8

Quick one: give me photoluminescence quantum yield for each item below, same order please.
1. CCCCN1c2ccccc2Sc2cc(/C=C\c3cc(=O)oc4ccc(C)cc34)ccc21
2. CCCCCCN1C(=O)c2cccc3c(-c4ccc([N+](=O)[O-])s4)ccc(c23)C1=O
3. COc1ccc2cc(-c3ccc([N+](=O)[O-])cc3)ccc2c1
4. CN1CCCc2cc(C3=Cc4cccc[n+]4[B-](F)(F)O3)ccc21
5. CCn1c2ccccc2oc2c(C#N)c3c(oc4ccccc4n3CC)c(C#N)c21

1: 0.7; 2: 0; 3: 0.055; 4: 0.55; 5: 0.44

Lab note: each compound below needs its photoluminescence quantum yield filled in.
1. CCN(CC)c1ccc(/C=C/c2cc(/C=C/c3ccc(N(CC)CC)cc3)nc(N)n2)cc1
2. COc1ccc(N(c2ccc(OC)cc2)c2ccc3ccc4c(B(c5c(C)cc(C)cc5C)c5c(C)cc(C)cc5C)ccc5ccc2c3c54)cc1
3. CN(C)c1ccc(/C=C/c2cc(/C=C/c3ccc(N(C)C)cc3)nc(N)n2)cc1

0.61
0.67
0.55

Your task in this section: give photoluminescence quantum yield for each listed record.
1. CCCCC1(c2ccccc2)Nc2c(-c3ccc(N(C)c4ccccc4)cc3)ccc(-c3ccc(N(C)c4ccccc4)cc3)c2N=C1c1ccccc1 (centres undefined)
2. c1ccc2c(-c3cc(-c4nccs4)nc(-c4nccs4)c3)cccc2c1
3. COc1ccc2c(-c3nc(-c4ccccc4F)no3)cc(=O)oc2c1
4. N#Cc1ccc(/C=C/c2ccc3ccc4cccc5ccc2c3c45)cc1
5. COc1ccc2c(-c3nc(-c4cccc(C)c4)no3)cc(=O)oc2c1
6. F[B-]1(F)OC(c2ccc(C(F)(F)F)cc2)=Cc2cc(Cl)nc[n+]21
7. c1ccc(-c2nc(-c3ccccc3)n3ccccc23)cc1
8. CCCCCCCCc1ccc(-n2c3c4ccccc4nc(-c4ccc(C#N)cc4)c3c3c2c2c(-c4ccc(C#N)cc4)nc4ccccc4c2n3-c2ccc(CCCCCCCC)cc2)cc1

1: 0.01; 2: 0.439; 3: 0.25; 4: 0.3; 5: 0.12; 6: 0.01; 7: 0.14; 8: 0.14

# per-item lookup of photoluminescence quantum yield; items listed below
1. Cc1ccc(C2=C3C=CC(c4ccccc4)=[N+]3[B-](F)(F)n3c(Cl)ccc32)cc1
2. F[B-]1(F)OC(c2ccccc2)=Cc2ccc3ccccc3[n+]21

1: 0.095; 2: 0.53
